Tested on: gene editing with dCas9
assay_notes: Screen of 322 new SSAP proteins, gene editing activity with dCas9 (Table 5)
Format: cell-based
applied_conditions: normalized
Excerpt: 322 new SSAP proteins were identified from sequence data, synthesized, and screened for activity with Cas9 and dCas9. Gene editing activities are shown below in Table 5, followed by amino acid sequences of the proteins.
outcome_measure: dCas9 with SSAP activity (normalized)

molecule="SSAP_92: SEQ ID NO: 261; Edwardsiella piscicida (protein, listed as Edwardsiella piscicida) TNNQQPPIATADLQKAQSQAPAVKPDQKLINFINQPSMKGQIAAALPRHMAPDRMIRIITTEIRKTPALATCDMQSFIGSVVQCSQLGLEPGGALGHAYLLPFGNGKAKSGQSNVQLIIGYRGMIDLARRSGQIVSISARTVRDGDQFHYEYGLDETLKHVPGDNESSPITHVYAVAKLKDGGVQFEVMTFNQIEKVRGQSKAGNNGPWQTHWEEMAKKTVIRRLFKYLPVSIEMQKAVILDEKAEANIDQENASVISAEFSVVED" test_value=−0.177
molecule="SSAP_104: SEQ ID NO: 273; Salinicoccus albus (protein, listed as Salinicoccus albus) STNESLKNQVATNQKNEVSNGNKPKTIGDYIDQMAPAMAQALPKHMSVERMTRMATTVIRTTPQLKEADVASLLGAVMQSAQLGLEPGPMGHCYFLPFKNNKKGTTEVTFIIGYKGMIDLARRSGHISTIYAHAVYENDEFEYELGLHADLKHKPSEDERGAFKGAYAVAHFKDGGYQFEYMPKSDIDKRRSRSKAGNSNYSPWATDYEEMAKKTVIRHMWKYLPVSVEMQQAVAHDEGTGKDIKDVTPDEDSFVDMPEYIADVPAEGEGE" test_value=−0.421
molecule="SSAP_106: SEQ ID NO: 275; Tepidibacillus fermentans (protein, Tepidibacillus fermentans) ATNEKVKTQLANRANGQAPTPTPEQTIAAYMKKMAPRFAEVLPKHMDIDRMTRIALTTIRTNPKLLEASVPSLLGAIMQAAQLGLEPGLVGHCYLVPFKNGKTGQTEVQFIIGYKGMIDLARRSGNIESIYAHAVYENDTFEYEYGLHPKLVHKPAMTDRGEFIGAYAVAHFKDGGYQFEFMPKEEIEKRRNRSKTANGGPWVTDYEEMAKKTVVRHMWKYLPISIEIQQAAAQDEVIRKDVTSEPEFVDDVIDISTEIEEQSVEVEGEEAQ" test_value=−0.829
molecule="SSAP_228: SEQ ID NO: 397; Weissella koreensis (protein, listed as Weissella koreensis) ANELVKQLKSEKVAAQFETTAGKNAAAFASEVAISVMGNKALENASLSSVVVEATKASALGLSLLPTVGEAYLVPYKGQAQFQLGYKGLVQLAMRSGQMKSFGTVKVYEGEHPRWDKYSQELHTDGDETGEVVGYYAQFTLINGFKKADYWTKSAVEEHRSRFSKSKSGPWSTDFDAMAQKTVLKSILQYAPKSSEMTRAMASEDMNGDISEGTAKPIDITPETETPKVEEANQNQQIDTNEMVDEIKEYAKETNEAPKEQTVSAADEFFK" test_value=−1.008
